assay: acute toxicity (LD50), intraperitoneal route in mice; format: in vivo; conditions: mouse, in vivo, ip, Table 2
measured.attribute: LD50

Noted for CC(C)=CCCC(C)=CCCC(C)=CCCC(C)=CCCC(C)=CCCC(C)=CCCC(C)=CCCC(C)=CCCC(C)=CCCC(C)=CCCC(=O)O [Decaprenylacetic acid] : its LD50 reads > 4000 mg/kg

Note to self: LD50 recorded for CCCCCCCCCCCCCCCCCC(=O)OC/C=C(\C)CCC[C@H](C)CCC[C@H](C)CCCC(C)C [Phytyl stearate] was > 4000 mg/kg

LD50 for CCCCC/C=C\C/C=C\CCCCCCCC(=O)OC/C=C(\C)CCC[C@H](C)CCC[C@H](C)CCCC(C)C [Phytyl linoleate] is > 4000 mg/kg

Per the records, this compound ( CC(C)=CCCC(C)=CCCC(=O)OCC=C(C)CCC=C(C)CCC=C(C)CCC=C(C)CCC=C(C)CCC=C(C)CCC=C(C)CCC=C(C)CCC=C(C)CCC=C(C)C [Decaprenyl geranylacetate] ) has LD50 equal to > 5000 mg/kg

Value of measured LD50 for the entry CC(=CCCC(=O)Oc1c(C)c(C)c2c(c1C)CCC(C)(CCCC(C)CCCC(C)CCCC(C)C)O2)CCCC(C)CCCC(C)CCCC(C)C (stereo not drawn) [α-Tocopheryl phytylacetate] : > 4000 mg/kg

LD50 for CCCCCCCC/C=C\CCCCCCCC(=O)OC/C=C(\C)CCC[C@H](C)CCC[C@H](C)CCCC(C)C [Phytyl oleate] is > 4000 mg/kg

###

tested on: mice; assay: acute toxicity (LD50), intraperitoneal route in mice; type: in vivo; conditions: Table 1
Consider the following molecules; for each one, report its LD50.

Given the molecule CCCCCCCC/C=C/CCCCCCCCCCCC(=O)OC/C=C(\C)CCC[C@H](C)CCC[C@H](C)CCCC(C)C [Phytyl brassidate] and test system mice, the measured LD50 is > 4000 mg/kg

Result for CC(C)=CCCC(C)=CCCC(C)=CCCC(C)=CCCC(C)=CCCC(C)=CCCC(C)=CCCC(C)=CCCC(C)=CCCC(C)=CCCC(=O)O [Decaprenylacetic acid] , tested on mice, LD50: > 4000 mg/kg

Log: mice, molecule CC(C)=CCCC(C)=CCCC(C)=CCCC(C)=CCCC(C)=CCCC(C)=CCCC(C)=CCCC(C)=CCCC(C)=CCCC(C)=CCOC(=O)CCC=C(C)CCCC(C)CCCC(C)CCCC(C)C (centres unmarked) [Decaprenyl phytylacetate] , LD50 = > 5000 mg/kg

Note to self: LD50 of CCCCCCCC/C=C\CCCCCCCC(=O)OC/C=C(\C)CCC[C@H](C)CCC[C@H](C)CCCC(C)C [Phytyl oleate] with mice was > 4000 mg/kg

Reported LD50 (mice) for entry C/C(=C\CCC(=O)O)CCC[C@H](C)CCC[C@H](C)CCCC(C)C [Phytylacetic acid] is > 5000 mg/kg

mice LD50 of CCCCCCCC/C=C\CCCCCCCC(=O)OCC=C(C)CCC=C(C)CCC=C(C)CCC=C(C)CCC=C(C)CCC=C(C)CCC=C(C)CCC=C(C)CCC=C(C)C [Solanesyl oleate] is > 4000 mg/kg

Field LD50 (mice), entry CCCCCCCC/C=C\CCCCCCCC(=O)OCC=C(C)CCC=C(C)CCC=C(C)CCC=C(C)CCC=C(C)CCC=C(C)CCC=C(C)CCC=C(C)CCC=C(C)CCC=C(C)C [Decaprenyl oleate] : > 5000 mg/kg

Query CC(=CCCC(=O)Oc1c(C)c(C)c2c(c1C)CCC(C)(CCCC(C)CCCC(C)CCCC(C)C)O2)CCCC(C)CCCC(C)CCCC(C)C (stereo not drawn) [α-Tocopheryl phytylacetate] on mice; LD50 returned: > 4000 mg/kg

Per the reported mice data, CC(C)=CCCC(C)=CCCC(C)=CCCC(=O)Oc1c(C)c(C)c2c(c1C)CCC(C)(CCCC(C)CCCC(C)CCCC(C)C)O2 (stereo not drawn) [α-Tocopheryl farnesylacetate] has LD50 of > 4000 mg/kg

Form field LD50 for item CC(=O)OC/C=C(\C)CCC[C@H](C)CCC[C@H](C)CCCC(C)C [Phytyl acetate] on mice: > 5000 mg/kg

Response field LD50 (mice) for item CC(C)=CCCC(C)=CCCC(C)=CCCC(C)=CCCC(C)=CCCC(C)=CCCC(C)=CCCC(C)=CCCC(C)=CCCC(C)=CCCC(=O)OCC=C(C)CCCC(C)CCCC(C)CCCC(C)C (centres unmarked) [Phytyl decaprenylacetate] : > 4000 mg/kg

// molecule C=CC(C)(CCCC(C)CCCC(C)CCCC(C)C)OC(=O)CCCCCCC/C=C\CCCCCCCC (centres unmarked) [Isophytyl oleate] , assay mice, LD50 value: > 4000 mg/kg

I looked up CC(C)=CCCC(C)=CCCC(=O)Oc1c(C)c(C)c2c(c1C)CCC(C)(CCCC(C)CCCC(C)CCCC(C)C)O2 (stereo not drawn) [α-Tocopheryl geranylacetate] and its LD50 for mice was > 4000 mg/kg

LD50 value, target or system mice, for CC(=O)OCC=C(C)CCC=C(C)CCC=C(C)CCC=C(C)CCC=C(C)CCC=C(C)CCC=C(C)CCC=C(C)CCC=C(C)CCC=C(C)C [Decaprenyl acetate] : > 5000 mg/kg
